The reported numbers originate from patent US9751869B2.

Biological target: LXRβ (Homo sapiens)
Construct: Co-transfection expression plasmids, comprising full-length LXRα (pCMX-h LXRα or LXRβ (pCMX-hLXRβ))
Experiment: LXR/LXRE co-transfection assay (luciferase reporter) in CV-1 cells, LXRβ
Settings: CV-1 cells transfected with pCMX-hLXRβ and LXREx1-Tk-Luciferase, 20 hours incubation, read-out: LXRbeta agonism EC50
List of pEC50 values.
Expect pEC50 as a plain number equal to -log10 of the molar concentration.

Field: example entries. Status: answers known.
molecule: Cc1nc(-c2ccc(OC(F)(F)F)cc2)c(-c2cc(-c3cccc(S(C)(=O)=O)c3)ccc2-c2cc(C(=O)NCC(C)(C)O)nn2C)o1
endpoint: pEC50
measured-number: 6.11

molecule: Cc1nc(-c2ccc3c(c2)OC(F)(F)O3)c(-c2cc(-c3cc(F)c(CO)c(S(C)(=O)=O)c3)ccc2-c2cc(C(=O)NC(C)(C)C#N)nn2C)o1
endpoint: pEC50
measured-number: 6.12

molecule: Cc1nc(-c2ccc3c(c2)OC(F)(F)O3)c(-c2cc(-c3cccc(S(C)(=O)=O)c3)ccc2-c2cc(C(C)(C)C(N)=O)nn2C)o1
endpoint: pEC50
measured-number: 6.90

molecule: Cc1nc(-c2ccc3c(c2)OC(F)(F)O3)c(-c2cc(-c3cc(F)c(CO)c(S(C)(=O)=O)c3)ccc2-c2cc(C(C)OC(N)=O)nn2C)o1 (stereo not drawn) [Example 131]
endpoint: pEC50
measured-number: 6.75

molecule: Cc1nc(-c2ccc3c(c2)OC(F)(F)O3)c(-c2cc(-c3ccc(CO)c(S(C)(=O)=O)c3)ccc2-n2nc(C(F)(F)F)cc2C)o1
endpoint: pEC50
measured-number: 8.30

(Q) Which pEC50 is reported for this molecule? Cc1cc(C(F)(F)F)n(-c2ccc(-c3cc(F)c(CO)c(S(C)(=O)=O)c3)cc2-c2nc(C)oc2-c2ccc(OC(F)F)cc2)n1
(A) 6.78

###

Target: LXRβ (Homo sapiens, UniProt P55055)
Construct: Co-transfection expression plasmids, comprising full-length LXRα (pCMX-h LXRα or LXRβ (pCMX-hLXRβ))
Sequence (P55055 1-460): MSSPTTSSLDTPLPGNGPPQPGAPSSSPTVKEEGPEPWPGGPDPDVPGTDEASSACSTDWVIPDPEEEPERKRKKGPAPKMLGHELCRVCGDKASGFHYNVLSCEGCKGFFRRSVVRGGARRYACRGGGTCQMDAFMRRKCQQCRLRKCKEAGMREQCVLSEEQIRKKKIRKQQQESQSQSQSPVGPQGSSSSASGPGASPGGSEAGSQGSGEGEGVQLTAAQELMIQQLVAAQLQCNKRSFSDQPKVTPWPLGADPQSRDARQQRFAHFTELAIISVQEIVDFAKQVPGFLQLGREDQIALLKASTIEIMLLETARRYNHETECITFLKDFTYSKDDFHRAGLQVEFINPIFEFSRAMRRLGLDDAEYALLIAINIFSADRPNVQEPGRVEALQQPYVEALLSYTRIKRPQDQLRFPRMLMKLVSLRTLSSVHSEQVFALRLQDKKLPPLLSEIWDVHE
Sequence (P19793 1-462 partner): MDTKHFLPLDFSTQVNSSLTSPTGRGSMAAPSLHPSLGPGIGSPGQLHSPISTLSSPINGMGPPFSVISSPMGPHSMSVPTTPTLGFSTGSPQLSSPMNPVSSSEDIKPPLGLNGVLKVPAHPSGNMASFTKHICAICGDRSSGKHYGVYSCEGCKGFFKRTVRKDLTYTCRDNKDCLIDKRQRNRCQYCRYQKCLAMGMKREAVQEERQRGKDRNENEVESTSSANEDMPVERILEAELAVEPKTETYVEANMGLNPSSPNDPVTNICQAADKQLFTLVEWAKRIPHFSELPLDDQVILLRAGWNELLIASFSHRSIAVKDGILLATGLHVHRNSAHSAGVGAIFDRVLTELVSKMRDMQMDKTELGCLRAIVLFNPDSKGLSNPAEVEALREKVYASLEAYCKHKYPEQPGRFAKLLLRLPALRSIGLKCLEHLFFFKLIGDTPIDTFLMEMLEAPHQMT
Test: LXR/LXRE co-transfection assay (luciferase reporter) in CV-1 cells, LXRβ
Details: CV-1 cells transfected with pCMX-hLXRβ and LXREx1-Tk-Luciferase, 20 hours incubation, read-out: LXRbeta agonism EC50
List of EC50 values.
Just the number plus its unit, please.

Field: example entries. Status: answers known.
molecule: Cc1nc(-c2ccc3c(c2)OC(F)(F)O3)c(-c2cc(-c3cc(F)c(CO)c(S(C)(=O)=O)c3)ccc2-c2cc(C(=O)NCC(F)(F)F)nn2C)o1
target-of-assay: LXRβ (Homo sapiens, UniProt P55055)
EC50: 257 nM
--
molecule: Cn1nc(C(F)(F)C(C)(C)O)cc1-c1ccc(-c2cc(F)c(CO)c(S(C)(=O)=O)c2)cc1-n1nncc1-c1ccc2c(c1)OC(F)(F)O2
target-of-assay: LXRβ (Homo sapiens, UniProt P55055)
EC50: 878 nM
--
molecule: Cc1nc(-c2ccc(OC(F)(F)F)cc2)c(-c2cc(-c3cccc(S(C)(=O)=O)c3)ccc2-n2cc(Cl)c(C(F)(F)F)n2)o1
target-of-assay: LXRβ (Homo sapiens, UniProt P55055)
EC50: 465 nM
--
molecule: CNS(=O)(=O)c1cccc(-c2ccc(-n3cc(Cl)c(C(F)(F)F)n3)c(-c3oc(C)nc3-c3ccc(OC(F)(F)F)cc3)c2)c1
target-of-assay: LXRβ (Homo sapiens, UniProt P55055)
EC50: 76 nM

(Q) Which EC50 is reported for this molecule? Cc1nc(-c2ccc3c(c2)OC(F)(F)O3)c(-c2cc(-c3cc(F)c(CO)c(S(C)(=O)=O)c3)ccc2-c2cc(C(C)O)nn2C)o1 (stereo not drawn) [Example 104]
(A) 54 nM

(Q) Can you check Cn1nc(C(F)(F)CNCCO)cc1-c1ccc(-c2cccc(S(C)(=O)=O)c2)cc1-n1nncc1-c1ccc(OC(F)(F)F)cc1 next?
(A) 1230 nM
